Ref: ChEMBL document CHEMBL5346882

assay: MRT in CD-1 mouse brain at 30 mg/kg, ip administered as single dose and measured after 15 to 240 mins by LC-MS/MS analysis; assay type: ADME, organism-based; conditions: time 15-240 min
test_readout: MRT (h)
Express your answer in h, writing the number without its unit.

[ask] For O=C(CC(c1ccccc1)c1ccccc1)NCC(O)CNCC1CCCCC1 (stereo unspecified) , what is its reported MRT?
[reply] 1.8

====

biological target: Cholinesterase (Homo sapiens, UniProt P06276)
Sequence (P06276 whole entry): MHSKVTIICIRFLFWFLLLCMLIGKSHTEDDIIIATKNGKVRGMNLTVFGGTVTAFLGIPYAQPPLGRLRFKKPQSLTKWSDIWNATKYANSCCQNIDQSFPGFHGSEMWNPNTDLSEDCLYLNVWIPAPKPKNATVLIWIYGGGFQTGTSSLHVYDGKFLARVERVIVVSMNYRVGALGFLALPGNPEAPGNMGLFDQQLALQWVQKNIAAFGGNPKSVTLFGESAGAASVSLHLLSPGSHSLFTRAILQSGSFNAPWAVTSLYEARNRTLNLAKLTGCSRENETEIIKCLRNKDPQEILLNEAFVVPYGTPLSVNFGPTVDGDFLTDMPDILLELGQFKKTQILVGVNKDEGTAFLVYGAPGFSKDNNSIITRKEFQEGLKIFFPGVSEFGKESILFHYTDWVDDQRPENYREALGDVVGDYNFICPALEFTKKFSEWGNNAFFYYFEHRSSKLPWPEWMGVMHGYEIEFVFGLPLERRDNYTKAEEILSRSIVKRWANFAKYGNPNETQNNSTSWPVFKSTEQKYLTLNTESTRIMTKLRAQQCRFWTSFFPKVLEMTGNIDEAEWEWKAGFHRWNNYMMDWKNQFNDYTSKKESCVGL
test_readout: pIC50
To interpret pIC50, take it as minus log10 of a concentration measured in moles per litre.

Record excerpt, results attached:
CC(C)(C)c1cccc(CNCC(O)CNC(=O)CC(c2ccccc2)c2ccccc2)c1 (racemic) | 6.74
CC(C)c1cccc(CNCC(O)CNC(=O)CC(c2ccccc2)c2ccccc2)c1 (racemic) | 6.59
COc1cccc(CNCC(O)CNC(=O)CC(c2ccccc2)c2ccccc2)c1 (racemic) | 6.60

[ask] Given the entry CC(C)(C)c1ccc(CNCC(O)CNC(=O)CC(c2ccccc2)c2ccccc2)cc1 (racemic) , what pIC50 was observed with Cholinesterase (Homo sapiens, UniProt P06276)?
[reply] 6.80

====

In this section we review reported inhibition at 10 µM values for a set of compounds.
target: hERG (KCNH2) (Homo sapiens); assay: Inhibition of human ERG at 10 uM relative to control; format: toxicity
Sequence (Q12809 whole entry): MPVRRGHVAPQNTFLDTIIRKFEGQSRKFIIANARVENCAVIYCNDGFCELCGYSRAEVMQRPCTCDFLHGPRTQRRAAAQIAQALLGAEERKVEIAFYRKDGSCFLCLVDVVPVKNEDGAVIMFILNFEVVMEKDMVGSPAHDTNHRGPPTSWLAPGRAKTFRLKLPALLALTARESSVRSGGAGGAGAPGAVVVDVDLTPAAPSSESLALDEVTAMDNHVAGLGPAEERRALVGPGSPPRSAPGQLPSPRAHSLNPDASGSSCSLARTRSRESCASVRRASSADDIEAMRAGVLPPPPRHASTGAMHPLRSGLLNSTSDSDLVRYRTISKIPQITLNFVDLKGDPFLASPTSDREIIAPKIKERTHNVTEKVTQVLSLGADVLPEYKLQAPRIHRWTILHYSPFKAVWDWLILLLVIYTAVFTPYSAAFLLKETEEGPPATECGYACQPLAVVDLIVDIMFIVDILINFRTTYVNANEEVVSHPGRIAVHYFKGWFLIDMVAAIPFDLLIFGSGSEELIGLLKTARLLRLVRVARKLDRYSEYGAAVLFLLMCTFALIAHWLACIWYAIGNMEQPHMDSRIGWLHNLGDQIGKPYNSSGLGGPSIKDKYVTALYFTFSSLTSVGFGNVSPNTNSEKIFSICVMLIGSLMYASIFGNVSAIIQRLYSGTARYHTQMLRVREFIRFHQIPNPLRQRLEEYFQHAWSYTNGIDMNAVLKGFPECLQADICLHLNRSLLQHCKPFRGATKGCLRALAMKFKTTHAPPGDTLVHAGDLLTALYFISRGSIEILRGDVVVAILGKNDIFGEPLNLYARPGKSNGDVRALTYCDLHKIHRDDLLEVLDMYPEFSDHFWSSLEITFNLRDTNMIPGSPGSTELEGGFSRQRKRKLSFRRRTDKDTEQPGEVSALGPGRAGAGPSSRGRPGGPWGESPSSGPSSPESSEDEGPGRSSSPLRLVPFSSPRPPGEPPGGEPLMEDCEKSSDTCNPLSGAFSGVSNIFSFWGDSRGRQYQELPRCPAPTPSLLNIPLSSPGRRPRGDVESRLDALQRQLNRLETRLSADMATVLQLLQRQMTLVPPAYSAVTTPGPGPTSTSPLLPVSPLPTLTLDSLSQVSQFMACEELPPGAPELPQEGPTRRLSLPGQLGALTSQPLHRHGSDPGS

O=C(CC(c1ccccc1)c1ccccc1)NC[C@@H](O)CNCC1CCCCC1 | < 50%

Now look at this entry.
[ask] Which inhibition at 10 µM reading was recorded for the compound O=C(CC(c1ccccc1)c1ccccc1)NC[C@H](O)CNCC1CCCCC1 ?
[reply] < 50%

====

Reported inhibition is given for each of the following compounds.
target: Cholinesterase (Homo sapiens, UniProt P06276); experiment: Inhibition of human recombinant BuChE using butyrylthiocholine iodide as substrate at 1 uM preincubated for 5 mins followed by substrate addition and measured after 5 mins by DTNB-reagent based Ellman's method relative to control; conditions: time 10.0 min
Just the number in %, nothing appended.

[ask] Fill in the recorded inhibition for this compound, with Cholinesterase (Homo sapiens, UniProt P06276) as test system: O=C(CC(c1ccccc1)c1ccccc1)NCC(O)CNCC1CC1 (racemic)
[reply] 46

[ask] Could you share what inhibition was measured for COc1cccc(CNCC(O)CNC(=O)C(c2ccccc2)c2ccccc2)c1 (racemic) , tested on Cholinesterase (Homo sapiens, UniProt P06276)?
[reply] 70

====

assay: MRT in CD-1 mouse brain at 10 mg/kg, ip administered as single dose and measured after 15 to 240 mins by LC-MS/MS analysis; format: ADME, organism-based; details: time 15-240 min
test_readout: MRT

[ask] Return reported MRT; argument: O=C(CC(c1ccccc1)c1ccccc1)NCC(O)CNCC1CCCCC1 (stereo unspecified)
[reply] 1.88 h

====

Heads up, these compounds all have pIC50 values measured for Cholinesterase (Homo sapiens, UniProt P06276).
Recall that pIC50 is obtained by taking minus log10 of the concentration measured in molar.

# annotated cases, reported pIC50 shown
O=C(CC(c1ccccc1)c1ccccc1)NCC(O)CNCc1cccc(C(F)(F)F)c1 (racemic) | 6.39
O=C(CC(c1ccccc1)c1ccccc1)NCC(O)CNCc1ccccc1 (racemic) | 6.55
CC(C)(C)c1ccc(CNCC(O)CNC(=O)C(c2ccccc2)c2ccccc2)cc1 (racemic) | 6.52
CC(C)(C)c1cccc(CNCC(O)CNC(=O)C(c2ccccc2)c2ccccc2)c1 (racemic) | 7.00

We now examine a further compound.
[ask] Would you kindly share the measured pIC50 for O=C(NCC(O)CNCc1cccc(C(F)(F)F)c1)C(c1ccccc1)c1ccccc1 (racemic) ?
[reply] 6.15
